# Tested on: Trypanosoma brucei
# Method Summary: Inhibition of recombinant Trypanosoma brucei GAPDH assessed as oxidative phosphorylation of D-glyceraldehyde-3-phosphate to 1,3-bisphosphoglycerate at 5 uM by spectrophotometric method relative to 2-phenoxy-1,4-naphthoquinone
The entries below are paired with their reported inhibition.
Result Type: inhibition (%)

> print(dat)
                                smiles.input         test.target  measure.unit  test.result
 1      Cc1ccc(OC2=CC(=O)c3c(O)cccc3C2=O)cc1  Trypanosoma brucei             %           40
 2   Cc1ccc(OC2=CC(=O)c3cc4ccccc4cc3C2=O)cc1  Trypanosoma brucei             %            0
 3     COc1cccc2c1C(=O)C(Oc1ccc(C)cc1)=CC2=O  Trypanosoma brucei             %           20
 4  CC(=O)Nc1ccc(OC2=CC(=O)c3cccc(O)c3C2=O)cc1  Trypanosoma brucei             %           48
 5     COc1cccc2c1C(=O)C=C(Oc1ccc(F)cc1)C2=O  Trypanosoma brucei             %          120
 6    O=C1C=C(Oc2ccc(F)cc2)C(=O)c2c(O)cccc21  Trypanosoma brucei             %          128
 7    COc1ccc(OC2=CC(=O)c3cccc(OC)c3C2=O)cc1  Trypanosoma brucei             %           48
 8       O=C1C=C(Oc2ccccc2)C(=O)c2c(O)cccc21  Trypanosoma brucei             %           84
 9        COc1cccc2c1C(=O)C(Oc1ccccc1)=CC2=O  Trypanosoma brucei             %           72
10         Cc1ccc(OC2=CC(=O)c3ccccc3C2=O)cc1  Trypanosoma brucei             %           24
11     COc1cccc2c1C(=O)C=C(Oc1ccc(C)cc1)C2=O  Trypanosoma brucei             %           40
12     COc1ccc(OC2=CC(=O)c3cccc(O)c3C2=O)cc1  Trypanosoma brucei             %           76
